Cited source for all entries: patent US20060079453A1

target_system: HLA-A*2902 (Homo sapiens, UniProt P04439, A270S/D101N/D185E/E176V/E277Q/E87Q/F33T/G231S/H175R/I121M/I218V/I322F/K168Q/L300P/L318F/M331R/P208A/P217A/Q86L/T323A/T345S/V100A/V358M)
test_method_notes: MHC molecular binding / Capture assay, IC50: A*2902
condition_context: Binding affinity to A*2902 (expressed as an IC50)
Catalogue of pIC50 readings, one per entry.
The read-out pIC50 is expressed as -log10 of concentration in moles per litre.

>>> observed_value("CC(C)C[C@H](NC(=O)[C@H](CO)NC(=O)[C@@H](N)CC(C)C)C(=O)N[C@@H](CC(=O)O)C(=O)N[C@H](C(=O)N[C@@H](CO)C(=O)N[C@@H](C)C(=O)N[C@@H](C)C(=O)N[C@@H](Cc1ccccc1)C(=O)N[C@@H](Cc1ccc(O)cc1)C(=O)O)C(C)C")
7.92

Kindly consider the entry below.
Prompt line: I would be grateful if you could share the reported pIC50 for `CC(C)C[C@H](NC(=O)[C@@H](NC(=O)[C@@H](N)CCCCN)[C@@H](C)O)C(=O)N[C@@H](Cc1ccc(O)cc1)C(=O)N[C@@H](CCC(N)=O)C(=O)N[C@@H](CO)C(=O)N[C@@H](CC(N)=O)C(=O)N1CCC[C@H]1C(=O)N[C@@H](Cc1ccc(O)cc1)C(=O)O` .
Response line: 5.77
